Test system: Pseudomonas aeruginosa
PROTOCOL_TEXT: Inhibition of Pseudomonas aeruginosa ExoU expressed in Saccharomyces cerevisiae 14328 harboring pdr1/pdr3 genes assessed as cell death measured as yeast growth recovery at 5 uM after 48 hrs by copper-inducible promoter CUP1 assay
Parameters: scale not given: the % may be the effect or the level left
# Activity per record follows

COc1ccc(NS(=O)(=O)c2c(C)cc(C)cc2C)cc1OC
18.5%
O=S(=O)(Nc1ccc2c(c1)OCCO2)c1ccc(C(F)(F)F)cc1
27.6%
NC(=O)c1cccc2c1-c1ccccc1C2
84.7%
CCCCCc1ccc(S(=O)(=O)Nc2ccc3c(c2)OCCO3)cc1
9%
Cc1cc(C)c(S(=O)(=O)NCCOc2ccccc2)c(C)c1
23.7%
CC(C)(C)c1ccc(S(=O)(=O)Nc2ccc3c(c2)OCCO3)cc1
52.2%

Now take the following compound into account.
Return Activity measured with Pseudomonas aeruginosa given this compound: Cc1cc(C)c(S(=O)(=O)Nc2ccc3c(c2)OCCO3)c(C)c1
60.2%

###

# viability at 48 h, 5 µM per record follows
PROTOCOL_TEXT: Toxicity against Saccharomyces cerevisiae 14328 assessed as cell viability at 5 uM after 48 hrs
Format: organism-based
EXPERIMENTAL_SETUP: Saccharomyces cerevisiae 14328 cells, read-out: Activity

O=S(=O)(Nc1ccc2c(c1)OCCO2)c1ccc(C(F)(F)F)cc1
> 90%

viability at 48 h, 5 µM lookup needed for CCCc1ccc(OCCNS(=O)(=O)c2c(C)cc(C)cc2C)cc1 , thanks.
85.2%

viability at 48 h, 5 µM lookup needed for O=S(=O)(Nc1cccc2ccccc12)c1ccc(C(F)(F)F)cc1 , thanks.
> 90%

viability at 48 h, 5 µM lookup needed for CC(C)(C)c1ccc(S(=O)(=O)Nc2ccc3c(c2)OCCO3)cc1 , thanks.
> 90%

viability at 48 h, 5 µM lookup needed for COc1ccc(NS(=O)(=O)c2c(C)cc(C)cc2C)cc1OC , thanks.
> 90%

###

PROTOCOL_TEXT: Cytotoxicity against HEK293T cells assessed as cell viability at 5 uM after 48 hrs
Format: cell-based, HEK-293T
EXPERIMENTAL_SETUP: human, read-out: Activity
REPORTED_ENDPOINT: viability at 48 h, 5 µM

Answered examples (2):
O=S(=O)(Nc1cccc2ccccc12)c1ccc(C(F)(F)F)cc1
> 90%
NC(=O)c1cccc2c1-c1ccccc1C2
> 90%

viability at 48 h, 5 µM lookup needed for Cc1cc(C)c(S(=O)(=O)Nc2ccc3c(c2)OCCO3)c(C)c1 , thanks.
> 90%

###

Tested on: Pseudomonas aeruginosa
PROTOCOL_TEXT: Inhibition of Pseudomonas aeruginosa ExoU expressed in Saccharomyces cerevisiae 14328 harboring pdr1/pdr3 genes assessed as cell death measured as yeast growth recovery at 5 uM after 48 hrs by copper-inducible promoter CUP1 assay
Design: scale not given: the % may be the effect or the level left
# Activity per record follows
State just the number; it will be interpreted in %.

Answered examples (3):
CCCc1ccc(OCCNS(=O)(=O)c2c(C)cc(C)cc2C)cc1
30.6
O=S(=O)(Nc1cccc2ccccc12)c1ccc(C(F)(F)F)cc1
45.4
O=S(=O)(Nc1ccc2c(c1)OCCO2)c1ccc2ccccc2c1
36.6

Now take the following compound into account.
Activity lookup needed for Cc1cc(C)c(NS(=O)(=O)c2ccc3c(c2)OCCO3)c(C)c1 , thanks.
21
